src = ChEMBL document CHEMBL4665844

# target desc: Bcl-2-like protein 1 (Homo sapiens, UniProt Q07817)
# Sequence (Q07817 whole entry): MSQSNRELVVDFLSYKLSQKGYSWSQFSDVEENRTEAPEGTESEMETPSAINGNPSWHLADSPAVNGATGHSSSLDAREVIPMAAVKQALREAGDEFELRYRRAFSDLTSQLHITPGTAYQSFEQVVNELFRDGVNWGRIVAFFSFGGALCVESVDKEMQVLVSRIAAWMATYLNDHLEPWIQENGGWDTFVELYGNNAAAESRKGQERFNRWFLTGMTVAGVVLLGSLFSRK
# assay notes: Binding affinity to full length His-tagged Bcl-xl (unknown origin) preincubated for 30 min followed by 5-FAM Bid-BH3 addition and measured after 20 mins by fluorescence polarization assay
pEC50: −log10 of the molar value.
The following molecules are listed with their measured pEC50 values.
endpoint: pEC50

INSERT INTO results (compound_structure_string, target_desc, endpoint, recorded_result) VALUES
  ('O=C1/C(=N\Nc2nccs2)C(c2ccccc2)=NN1c1nc(-c2ccccc2)cs1', 'Bcl-2-like protein 1 (Homo sapiens, UniProt Q07817)', 'pEC50', '< 5.00'),
  ('O=C(NO)c1ccc(CNC(=O)c2ccc(-c3csc(N4N=C(c5ccccc5)/C(=N/Nc5nccs5)C4=O)n3)cc2)cc1', 'Bcl-2-like protein 1 (Homo sapiens, UniProt Q07817)', 'pEC50', '< 5.00');

* * *

# Test system: HeLa
# assay notes: Antiproliferative activity against siRNA-induced BAX knock down human HeLa cells after 48 hrs by MTT assay
# Assay type: functional, cell-based
Documented IC50 across a set of compounds
endpoint: IC50 (µM)

INSERT INTO results (compound_structure_string, target_desc, readout_unit, value_modifier, recorded_result) VALUES
  ('O=C(NO)c1ccc(CNC(=O)c2ccc(-c3csc(N4N=C(c5ccccc5)/C(=N/Nc5nccs5)C4=O)n3)cc2)cc1', 'HeLa', 'µM', '=', 7.55),
  ('O=C1/C(=N\Nc2nccs2)C(c2ccccc2)=NN1c1nc(-c2ccccc2)cs1', 'HeLa', 'µM', '>', 20);

* * *

# target desc: Histone deacetylase 2 (Homo sapiens)
# Sequence (Q92769 whole entry): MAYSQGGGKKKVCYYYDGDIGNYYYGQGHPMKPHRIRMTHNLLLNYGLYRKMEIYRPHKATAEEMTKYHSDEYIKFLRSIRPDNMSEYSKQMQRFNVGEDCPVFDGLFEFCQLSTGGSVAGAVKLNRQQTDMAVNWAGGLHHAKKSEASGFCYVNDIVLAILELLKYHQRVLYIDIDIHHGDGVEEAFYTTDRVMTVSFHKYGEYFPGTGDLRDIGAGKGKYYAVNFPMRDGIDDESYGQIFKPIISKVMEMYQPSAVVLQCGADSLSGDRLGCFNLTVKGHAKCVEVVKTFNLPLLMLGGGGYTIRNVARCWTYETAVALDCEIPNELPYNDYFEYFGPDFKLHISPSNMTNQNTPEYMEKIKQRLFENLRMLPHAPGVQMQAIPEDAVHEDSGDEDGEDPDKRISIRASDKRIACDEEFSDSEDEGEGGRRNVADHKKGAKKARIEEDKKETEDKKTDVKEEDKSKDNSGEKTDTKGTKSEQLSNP
pIC50: −log10 of the molar value.
endpoint: pIC50

INSERT INTO results (compound_structure_string, recorded_result) VALUES
  ('O=C(NO)c1ccc(CNC(=O)c2ccc(-c3csc(N4N=C(c5ccccc5)/C(=N/Nc5nccs5)C4=O)n3)cc2)cc1', 6.70);

* * *

# target desc: Histone deacetylase
# assay notes: Inhibition of HDAC in human HeLa nuclear extract using Boc-Lys(acetyl)-AMC or Boc-Lys (triflouroacetyl)-AMC as substrate preincubated for 5 mins followed by substrate addition and measured after 30 mins by fluorescence assay
# Format: subcellular, Nucleus
endpoint: IC50

INSERT INTO measurements (compound_structure_string, target_desc, recorded_result) VALUES
  ('O=C(NO)c1ccc(COc2ccc(-c3csc(N4N=C(c5ccccc5)/C(=N/Nc5nccs5)C4=O)n3)cc2)cc1', 'Histone deacetylase', '0.085 µM'),
  ('O=C(CCCCOc1ccc(-c2csc(N3N=C(c4ccccc4)/C(=N/Nc4nccs4)C3=O)n2)cc1)NO', 'Histone deacetylase', '0.1185 µM'),
  ('O=C(/C=C/c1ccc(COc2ccc(-c3csc(N4N=C(c5ccccc5)/C(=N/Nc5nccs5)C4=O)n3)cc2)cc1)NO', 'Histone deacetylase', '0.2437 µM'),
  ('O=C(CCCCNC(=O)c1ccc(-c2csc(N3N=C(c4ccccc4)/C(=N/Nc4nccs4)C3=O)n2)cc1)NO', 'Histone deacetylase', '0.2074 µM'),
  ('O=C(CCCCCOc1ccc(-c2csc(N3N=C(c4ccccc4)/C(=N/Nc4nccs4)C3=O)n2)cc1)NO', 'Histone deacetylase', '0.0758 µM'),
  ('O=C(CCCCCNC(=O)c1ccc(-c2csc(N3N=C(c4ccccc4)/C(=N/Nc4nccs4)C3=O)n2)cc1)NO', 'Histone deacetylase', '0.0875 µM'),
  ('O=C1/C(=N\Nc2nccs2)C(c2ccccc2)=NN1c1nc(-c2ccccc2)cs1', 'Histone deacetylase', '> 10 µM'),
  ('O=C(/C=C/c1ccc(CNC(=O)c2ccc(-c3csc(N4N=C(c5ccccc5)/C(=N/Nc5nccs5)C4=O)n3)cc2)cc1)NO', 'Histone deacetylase', '1.3415 µM'),
  ('O=C(CCCCCCOc1ccc(-c2csc(N3N=C(c4ccccc4)/C(=N/Nc4nccs4)C3=O)n2)cc1)NO', 'Histone deacetylase', '0.0408 µM'),
  ('O=C(O)c1ccc(-c2csc(N3N=C(c4ccccc4)/C(=N/Nc4nccs4)C3=O)n2)cc1', 'Histone deacetylase', '> 10 µM'),
  ('O=C(NO)c1ccc(-c2csc(N3N=C(c4ccccc4)/C(=N/Nc4nccs4)C3=O)n2)cc1', 'Histone deacetylase', '0.5774 µM'),
  ('O=C(NO)c1ccc(CNC(=O)c2ccc(-c3csc(N4N=C(c5ccccc5)/C(=N/Nc5nccs5)C4=O)n3)cc2)cc1', 'Histone deacetylase', '0.0628 µM'),
  ('O=C(CCCOc1ccc(-c2csc(N3N=C(c4ccccc4)/C(=N/Nc4nccs4)C3=O)n2)cc1)NO', 'Histone deacetylase', '0.6748 µM'),
  ('O=C(CCCCCCCOc1ccc(-c2csc(N3N=C(c4ccccc4)/C(=N/Nc4nccs4)C3=O)n2)cc1)NO', 'Histone deacetylase', '0.1352 µM'),
  ('O=C(CCCCCCNC(=O)c1ccc(-c2csc(N3N=C(c4ccccc4)/C(=N/Nc4nccs4)C3=O)n2)cc1)NO', 'Histone deacetylase', '0.0988 µM');

* * *

# Tested on: HeLa
# assay notes: Synergistic antiproliferative activity against human HeLa cells assessed as assessed as reduction in cell viability after 48 hrs in presence of SAHA by MTT assay
# Assay type: functional, cell-based
endpoint: IC50 (nM)

INSERT INTO assay_data (compound_structure_string, endpoint, recorded_result) VALUES
  ('O=C1/C(=N\Nc2nccs2)C(c2ccccc2)=NN1c1nc(-c2ccccc2)cs1', 'IC50', 810);

* * *

# target desc: Induced myeloid leukemia cell differentiation protein Mcl-1 (Homo sapiens, UniProt Q07820)
# Sequence (Q07820 whole entry): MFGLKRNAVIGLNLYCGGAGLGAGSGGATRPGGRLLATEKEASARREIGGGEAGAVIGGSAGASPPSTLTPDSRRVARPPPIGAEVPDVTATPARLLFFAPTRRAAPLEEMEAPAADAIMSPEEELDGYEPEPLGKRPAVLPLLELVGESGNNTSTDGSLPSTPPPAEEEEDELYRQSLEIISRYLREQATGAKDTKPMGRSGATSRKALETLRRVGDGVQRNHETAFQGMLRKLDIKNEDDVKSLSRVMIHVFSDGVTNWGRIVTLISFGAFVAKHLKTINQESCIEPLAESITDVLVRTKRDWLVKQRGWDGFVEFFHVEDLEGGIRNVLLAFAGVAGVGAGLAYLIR
# assay notes: Binding affinity to full length His-tagged Mcl1 (unknown origin) preincubated for 30 min followed by 5-FAM Bid-BH3 addition and measured after 20 mins by fluorescence polarization assay
endpoint: EC50

INSERT INTO assay_data (compound_structure_string, recorded_result) VALUES
  ('O=C(NO)c1ccc(CNC(=O)c2ccc(-c3csc(N4N=C(c5ccccc5)/C(=N/Nc5nccs5)C4=O)n3)cc2)cc1', '> 10 µM'),
  ('O=C1/C(=N\Nc2nccs2)C(c2ccccc2)=NN1c1nc(-c2ccccc2)cs1', '> 10 µM');

* * *

# target desc: Histone deacetylase 8 (Homo sapiens)
# Sequence (Q9BY41 whole entry): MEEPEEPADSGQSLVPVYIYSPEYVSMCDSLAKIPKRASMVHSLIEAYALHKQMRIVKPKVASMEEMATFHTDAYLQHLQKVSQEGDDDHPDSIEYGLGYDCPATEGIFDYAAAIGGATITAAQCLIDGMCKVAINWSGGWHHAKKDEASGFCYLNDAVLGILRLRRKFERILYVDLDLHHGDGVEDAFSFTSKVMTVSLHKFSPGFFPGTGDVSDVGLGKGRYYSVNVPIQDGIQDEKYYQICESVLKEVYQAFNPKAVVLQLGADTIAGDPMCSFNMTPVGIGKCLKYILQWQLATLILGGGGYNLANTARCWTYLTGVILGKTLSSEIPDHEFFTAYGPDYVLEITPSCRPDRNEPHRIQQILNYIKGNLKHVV
endpoint: IC50 (nM)

INSERT INTO results (compound_structure_string, endpoint, recorded_result) VALUES
  ('O=C(NO)c1ccc(CNC(=O)c2ccc(-c3csc(N4N=C(c5ccccc5)/C(=N/Nc5nccs5)C4=O)n3)cc2)cc1', 'IC50', 1090);
